experiment: small-molecule microarray binders of probe aDKK1, primary screen, biochemical, biotinylated probe, 635/667 nm fluorescence (AID 1099); conditions: higher = more signal;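 also: score merges 667nm spot fluorescence with signal to noise across triplicate slides; reference of the scale not given here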
Yes means recorded composite z-score is -0.2 or above; No means it is below -0.2.

Would you please look over these solved cases?
MOLECULE	ASSIGNED CATEGORY
CC(C)=CCCC(C)=CCON=C1C[C@@H](O)[C@@H](O)[C@@H]2[C@@H]3C(=O)N(C4CCCCC4)C(=O)[C@@H]3CC[C@H]12	Yes
CC(CCC(=O)OC[C@H]1O[C@H](C#Cc2ccccc2)C=C[C@@H]1Oc1ccc(C)cc1)=NOC(C)CN1CCCCc2nc(C)c(C)cc21 (some centres not stated)	No
C=CC[C@@H]1C=C[C@H](Oc2ccc(C)cc2)[C@@H](COC(=O)NCc2cccc3ccccc23)O1	Yes

Is composite z-score for "COc1ccc(O[C@H]2C=C[C@@H](c3ccccc3)O[C@@H]2CON=C2c3cc(OC)ccc3O[C@H](c3cccc(OC)c3)[C@H]2O)cc1" at or above -0.2?
Yes

Is composite z-score for "CCc1cc2c(nc1CC)CCN(CCC(C)=NOCC[C@@H]1C=C[C@H](OC(C)=O)[C@@H](COC(C)=O)O1)C2" at or above -0.2?
Yes

Is composite z-score for "Cc1ccc(C(C)C)n1C(=O)OC(C)(C)C" at or above -0.2?
No

Is composite z-score for "C[C@@H](c1ccccc1)N1C(=O)[C@H]2[C@H]3[C@H](O)[C@H](O)CC(=NNC(=O)OCc4ccccc4)[C@@H]3CC[C@H]2C1=O" at or above -0.2?
No
